# study target: cGMP-dependent protein kinase 1 (Homo sapiens)
# Sequence (Q13976 whole entry): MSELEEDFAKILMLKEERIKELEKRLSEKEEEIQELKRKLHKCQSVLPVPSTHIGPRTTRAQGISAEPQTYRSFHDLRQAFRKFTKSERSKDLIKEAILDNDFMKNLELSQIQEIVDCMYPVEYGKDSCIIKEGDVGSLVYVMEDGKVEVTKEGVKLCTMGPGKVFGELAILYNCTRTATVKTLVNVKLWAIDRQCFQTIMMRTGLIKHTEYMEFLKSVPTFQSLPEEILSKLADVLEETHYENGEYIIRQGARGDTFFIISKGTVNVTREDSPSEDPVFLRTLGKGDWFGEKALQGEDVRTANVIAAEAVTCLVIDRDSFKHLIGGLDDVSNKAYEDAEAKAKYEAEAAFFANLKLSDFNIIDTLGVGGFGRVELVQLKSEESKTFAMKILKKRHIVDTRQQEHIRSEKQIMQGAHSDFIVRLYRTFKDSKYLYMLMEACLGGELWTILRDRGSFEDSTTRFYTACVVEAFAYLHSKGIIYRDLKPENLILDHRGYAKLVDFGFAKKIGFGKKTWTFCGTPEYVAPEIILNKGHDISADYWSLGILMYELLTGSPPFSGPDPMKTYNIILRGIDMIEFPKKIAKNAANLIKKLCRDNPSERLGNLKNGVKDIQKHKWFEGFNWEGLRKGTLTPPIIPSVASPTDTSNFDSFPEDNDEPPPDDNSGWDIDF
Record: compiled IC50 on cGMP-dependent protein kinase 1 (Homo sapiens) from multiple reports.
assay endpoint: IC50

[[record]]
mol_smiles = "CC1(C)OCC(=O)Nc2cc(Nc3nc(NCC(F)(F)F)c4occc4n3)ccc21"
data_value = "> 10 µM"

[[record]]
mol_smiles = "CCCNC(=O)c1ccc(Nc2nc(NCC(F)(F)F)c3cc[nH]c3n2)cc1"
data_value = "> 10 µM"

[[record]]
mol_smiles = "CNC(=O)c1cc(Oc2ccc(NC(=O)Nc3cc(C(C)(C)C)nn3-c3ccc4ncccc4c3)c(F)c2)ccn1"
data_value = "> 1 µM"

[[record]]
mol_smiles = "NC(=O)c1ccc(NC(=O)NCc2cccc(C(=O)Nc3ccc4c(c3)CNCC4)c2)cc1"
data_value = "3 µM"

